Values were extracted from paper PMC12856317.

testedOn: WT apoALAS2 (residues 54–587) (Homo sapiens)
Construct: His6-SUMO (N, cleaved yes)
Sequence (P22557 54-587): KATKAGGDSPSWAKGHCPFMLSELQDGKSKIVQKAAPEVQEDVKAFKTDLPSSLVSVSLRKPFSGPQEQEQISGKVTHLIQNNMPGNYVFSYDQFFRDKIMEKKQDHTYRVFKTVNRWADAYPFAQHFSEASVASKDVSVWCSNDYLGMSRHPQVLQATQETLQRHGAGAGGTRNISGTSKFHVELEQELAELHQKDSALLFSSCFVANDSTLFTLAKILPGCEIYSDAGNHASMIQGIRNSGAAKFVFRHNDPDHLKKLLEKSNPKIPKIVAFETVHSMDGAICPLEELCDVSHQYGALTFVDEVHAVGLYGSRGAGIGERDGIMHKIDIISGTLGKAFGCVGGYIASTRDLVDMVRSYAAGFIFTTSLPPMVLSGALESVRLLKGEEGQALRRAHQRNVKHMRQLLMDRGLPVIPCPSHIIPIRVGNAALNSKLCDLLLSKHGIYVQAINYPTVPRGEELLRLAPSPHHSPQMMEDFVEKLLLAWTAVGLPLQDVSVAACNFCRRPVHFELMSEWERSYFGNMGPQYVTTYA
procedureSummary: Inhibitor competition, apoenzyme reactivation by PLP with or without hemin
measurementContext: WT apoALAS2, PLP titration in the presence of 50 μM hemin
measurementName: pEC50
// scale note: pEC50 = -log10(conc_M); give the bare number

Qu. What does the record list as pEC50 for Cc1ncc(COP(=O)(O)O)c(C=O)c1O [PLP] ?
Ans. 5.15

###

testedOn: apoALAS2 ΔN (residues 75–587) (Homo sapiens, UniProt P22557)
Construct: a truncation without HRM3 (ΔN, residues 75–587); His6-SUMO (N, cleaved yes)
procedureSummary: Inhibitor competition, apoenzyme reactivation by PLP with hemin
measurementContext: ΔN apoALAS2, PLP titration in the presence of 25 μM hemin
measurementName: EC50 (µM)
Hi! Could you send only the number? It should be in µM, unit omitted.

Qu. Can you share its EC50? I mean this compound: Cc1ncc(COP(=O)(O)O)c(C=O)c1O [PLP]
Ans. 4

###

testedOn: apoALAS2 Cys-mut (C70A/C555A/C558A) (Homo sapiens, UniProt P22557, C555A/C558A/C70A)
Construct: Site-directed mutagenesis was performed on the mature ALAS2 (residues 54–587) construct to generate truncations and cysteine mutants; His6-SUMO (N, cleaved yes); made in house; host or cells: Escherichia coli BL21-Codon Plus (DE3)-RIL
procedureSummary: Inhibitor competition, apoenzyme reactivation by PLP with hemin
Type: biochemical
measurementContext: Cys-mut apoALAS2, PLP titration in the presence of 50 μM hemin
measurementName: EC50 (µM)
Form entry: value (µM) — number only.

Qu. Query (compound): Cc1ncc(COP(=O)(O)O)c(C=O)c1O ; field requested: EC50
Ans. 10

###

testedOn: apoALAS2 ΔC (residues 54–547) (Homo sapiens, UniProt P22557)
Construct: a truncation without the C-terminal CXXC motif (ΔC, residues 54–547); His6-SUMO (N, cleaved yes)
Sequence (P22557 54-547): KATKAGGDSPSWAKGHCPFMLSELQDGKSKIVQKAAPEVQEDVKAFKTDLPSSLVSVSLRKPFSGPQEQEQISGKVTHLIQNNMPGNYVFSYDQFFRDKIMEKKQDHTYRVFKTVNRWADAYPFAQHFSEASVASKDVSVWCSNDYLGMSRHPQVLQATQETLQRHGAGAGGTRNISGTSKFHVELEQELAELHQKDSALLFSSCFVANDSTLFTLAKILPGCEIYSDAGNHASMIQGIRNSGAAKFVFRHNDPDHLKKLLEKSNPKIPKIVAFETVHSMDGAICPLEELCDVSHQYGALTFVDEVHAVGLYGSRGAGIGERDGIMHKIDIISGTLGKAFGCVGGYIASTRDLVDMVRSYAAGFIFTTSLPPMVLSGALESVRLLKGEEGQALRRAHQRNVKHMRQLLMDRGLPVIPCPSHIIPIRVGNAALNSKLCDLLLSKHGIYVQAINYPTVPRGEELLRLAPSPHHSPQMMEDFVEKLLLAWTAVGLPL
procedureSummary: Inhibitor competition, apoenzyme reactivation by PLP with hemin
measurementContext: ΔC apoALAS2, PLP titration in the presence of 50 μM hemin
measurementName: pEC50
Schema: pEC50 number; meaning minus log10 of the concentration expressed in molar units.

Qu. Any idea what its pEC50 is? The molecule is Cc1ncc(COP(=O)(O)O)c(C=O)c1O [PLP]
Ans. 5.05
